Values from paper doi:10.1101/2024.12.12.628227

target: human AXL Ig1 domain fused to human Fc (Homo sapiens, UniProt P30530); assay: BLI

# binder, binding result
records = [
    ("tilvestamab scFv-osmY G233A (scFv, V domains shown) VH: EVQLVESGGGLVQPGGSLRLSCAASGYSFTDFYINWVRQAPGKGLEWVARIFPGGDNTYYNEKFKGRFTLSADTSKSTAYLQMNSLRAEDTAVYYCARRGLYYAMDYWGQGTLVTVSS VL: DIQMTQSPSSLSASVGDRVTITCRSSQSLVHSNGIPYLHWYQQKPGKAPKLLIYRVSNRFSGVPSRFSGSGSGTDFTLTISSLQPEDFATYYCSQATHVPPTFGQGTKVEIK", "binds"),
    ("tilvestamab scFv-osmY G101A (scFv, V domains shown) VH: EVQLVESGGGLVQPGGSLRLSCAASGYSFTDFYINWVRQAPGKGLEWVARIFPGGDNTYYNEKFKGRFTLSADTSKSTAYLQMNSLRAEDTAVYYCARRALYYAMDYWGQGTLVTVSS VL: DIQMTQSPSSLSASVGDRVTITCRSSQSLVHSNGIPYLHWYQQKPGKAPKLLIYRVSNRFSGVPSRFSGSGSGTDFTLTISSLQPEDFATYYCSQGTHVPPTFGQGTKVEIK", "binds"),
    ("tilvestamab scFv-osmY F33S (scFv, V domains shown) VH: EVQLVESGGGLVQPGGSLRLSCAASGYSFTDSYINWVRQAPGKGLEWVARIFPGGDNTYYNEKFKGRFTLSADTSKSTAYLQMNSLRAEDTAVYYCARRGLYYAMDYWGQGTLVTVSS VL: DIQMTQSPSSLSASVGDRVTITCRSSQSLVHSNGIPYLHWYQQKPGKAPKLLIYRVSNRFSGVPSRFSGSGSGTDFTLTISSLQPEDFATYYCSQGTHVPPTFGQGTKVEIK", "binds"),
]
